system: P. carinii; assay: In vitro anti-P. carinii ATP detection assay; type: cell-based, Pneumocystis carinii; settings: Pneumocystis carinii, 48 h, read-out: Anti-P. carinii activity IC50, 48 h
Please respond with reported IC50 for every item in the list.
Numbers only, in mg/L.

Query: Record request: IC50 value, item COc1cc(NC(C)CCCN2C(=O)CN(C(=O)[C@@H](C)N)C2(C)C)c2ncccc2c1 (stereo partly drawn)
Response: 8

Query: Record request: IC50 value, item COc1cc(NC(C)CCCN2C(=O)CN(C(C)=O)C2(C)C)c2ncccc2c1 (stereo not drawn)
Response: 40.5

Query: Record request: IC50 value, item COc1cc(NC(C)CCCN2C(=O)CN(C(=O)[C@H](N)CC(C)C)C2(C)C)c2ncccc2c1 (stereo partly drawn)
Response: 8.4

Query: Record request: IC50 value, item COc1cc(NC(C)CCCN2C(=O)[C@@H](C)N(C(=O)CN)C2(C)C)c2ncccc2c1 (stereo partly drawn)
Response: 32.2

Query: Record request: IC50 value, item COc1cc(NC(C)CCCN2C(=O)CN(C(=O)[C@H](N)CCSC)C2(C)C)c2ncccc2c1 (stereo partly drawn)
Response: 6.4

Query: Record request: IC50 value, item COc1cc(NC(C)CCCN2C(=O)CN(C(=O)CN)C2(C)C)c2ncccc2c1 (stereo not drawn)
Response: 15.5

Query: Record request: IC50 value, item COc1cc(NC(C)CCCN2C(=O)CN(C(=O)[C@H](N)Cc3ccccc3)C2(C)C)c2ncccc2c1 (stereo partly drawn)
Response: 9.3

Query: Record request: IC50 value, item CC[C@H](C)[C@@H](N)C(=O)N1CC(=O)N(CCCC(C)Nc2cc(OC)cc3cccnc23)C1(C)C (stereo partly drawn)
Response: 7.5

Now examine the next entry.
Query: Record request: IC50 value, item COc1cc(NC(C)CCCN2C(=O)CN(C(=O)[C@H](N)C(C)C)C2(C)C)c2ncccc2c1 (stereo partly drawn)
Response: 9.2

====

system: P. carinii; test: In vitro anti-P. carinii ATP detection assay; type: cell-based, Pneumocystis carinii; details: Pneumocystis carinii, 24 h, read-out: Anti-P. carinii activity IC50, 24 h
Value type: IC50 (µg/mL)
One number for each entry, in µg/mL.

Please state, for each entry, its recorded IC50.
1. COc1cc(NC(C)CCCN2C(=O)CN(C(=O)CN)C2(C)C)c2ncccc2c1 (stereo not shown) [Compound 5a]
2. COc1cc(NC(C)CCCN2C(=O)CN(C(=O)[C@@H](C)N)C2(C)C)c2ncccc2c1 (stereo partly shown) [Compound 5b]
3. COc1cc(NC(C)CCCN2C(=O)CN(C(=O)[C@H](N)CC(C)C)C2(C)C)c2ncccc2c1 (stereo partly shown) [Compound 5d]

Response:
18.1
16.9
14.6

Please state, for each entry, its recorded IC50.
1. COc1cc(NC(C)CCCN2C(=O)CN(C(=O)[C@H](N)Cc3ccccc3)C2(C)C)c2ncccc2c1 (stereo partly shown) [Compound 5g]
2. COc1cc(NC(C)CCCN2C(=O)CN(C(=O)[C@H](N)C(C)C)C2(C)C)c2ncccc2c1 (stereo partly shown) [Compound 5c]
3. COc1cc(NC(C)CCCN2C(=O)CN(C(=O)[C@H](N)CCSC)C2(C)C)c2ncccc2c1 (stereo partly shown) [Compound 5f]
4. CC[C@H](C)[C@@H](N)C(=O)N1CC(=O)N(CCCC(C)Nc2cc(OC)cc3cccnc23)C1(C)C (stereo partly shown) [Compound 5e]

Response:
[12.1, 24.7, 11.6, 12.9]
